Assay: Primary qHTS for delayed death inhibitors of the malarial parasite plastid, 48 hour incubation
Details: P. falciparum luciferase growth in erythrocytes; series mostly up to 28.7 µM
Screen size: about 310,000 compounds; about 18,000 (5.8%) were called active. Not shown: some 22% with an inconclusive outcome. The call rests on the fitted dose curve; in most records, active means well fitted inhibition curve with a large enough effect; inconclusive means small, poorly fitted or top-dose-only effect, or another doubt; inactive means no such curve, though single readings can be large or run the other way. Only a selection was taken, and actives are over-represented in it overall.
Answer with one of the outcomes active, inactive

• CCOc1ccccc1OCC(=O)Nc1ccccc1C(=O)NC1CC1 = inactive
• CN(C(=O)CSc1nnc(-c2ccc(C(C)(C)C)cc2)n1C)C1CCS(=O)(=O)C1 (stereo unspecified) = inactive
• CN(C)S(=O)(=O)c1ccc(N2CCCC2)c(C(=O)Nc2ccc(Br)cc2F)c1 = active
• COc1ccc(OC(C)C(=O)NCCc2nc3ccccc3[nH]2)cc1 (stereo unspecified) = inactive
• CN(C)S(=O)(=O)c1ccc(N2CCCC2)c(C(=O)Nc2cccc(F)c2)c1 = inactive

Query :: What did this assay record as the result for "CC(C)c1csc(CN2CCC(CO)(Cc3ccccc3)CC2)n1" ?
Result :: inactive

Query :: // same read-out, input: "Cc1cc(C(C)(C)C)cc(S(=O)(=O)Nc2ccc(C(=O)O)cc2)c1C"
Result :: inactive

Query :: Now give it for "COc1ccc(-c2cc(C(=O)NCCCN3CCOCC3)no2)cc1" too.
Result :: inactive

Query :: Then this compound: "OCC1(Cc2ccccc2C(F)(F)F)CCN(Cc2cccc3cnccc23)CC1"
Result :: active

Query :: Consider next the compound "OCC1(Cc2ccccc2)CCN(Cc2cc3ccccc3o2)CC1" in the same way.
Result :: inactive

Query :: Try this compound next: "O=S(=O)(c1ccc(-c2ccno2)s1)N1CCCCC1"
Result :: inactive

Each recorded value in this set is attributed to PubChem BioAssay AID504832.
